Hello, the source for this data is ChEMBL document CHEMBL1201862, in case you need it.

test system: HOP-62; assay: NCI tumour cell line growth inhibition, 48 h
Activity calls are given as the source filed them. Rule as the data show it: active = GI50 up to about 1.1 µM and inactive = higher. Where a SMILES comes first, the peptide text is derived from it. The star is where a group is joined. Boc = CC(C)(C)OC(=O)*
parameter_measured: GI50

Q: Read the entry `CCCCS/C(=C(/C#N)C(N)=O)c1cc2c([nH]1)CCCC2` and write its reported GI50.
A: 21.9 µM (inactive)

Q: Read the entry CC(C)(C)OC(=O)NC(Cc1ccccc1)C(=O)N1CCCC1C(N)=O (stereo not drawn) (Boc-Phe-Pro-NH2; configuration not given here) and write its reported GI50.
A: > 100 µM (inactive)

Q: Read the entry `Cc1ccc(N2C(=O)/C(=C3\SC(C(N)=O)=C(N)N3c3ccccc3)SC2=S)cc1` and write its reported GI50.
A: 25.8 µM (inactive)

Q: Read the entry `CCN(CC)c1ccc(NC(=S)NN(C)C)cc1` and write its reported GI50.
A: > 10 µM (inactive)

Q: Read the entry C[Si](C)(C)OC1(C#N)C2C3CC4C2C(=O)C2C4C3C21 (stereo not given) and write its reported GI50.
A: > 100 µM (inactive)

Q: Read the entry `COc1cc2ccc3c4cc(OC)c(OC)cc4c[n+](C)c3c2cc1O` and write its reported GI50.
A: > 92.5 µM (inactive)

Q: Read the entry `CC(=O)[C@@H](C)C(=O)N1C(=O)OC[C@@]12[C@@H]1CC[C@@H](C1)C2(C)C` and write its reported GI50.
A: > 100 µM (inactive)

Q: Read the entry `O=C(CP(c1ccccc1)c1ccccc1)c1cccc(C(=O)CP(c2ccccc2)c2ccccc2)c1` and write its reported GI50.
A: 96.6 µM (inactive)

Q: Read the entry CN(C)c1ncnc2c1ncn2C1C=CC(COS(N)(=O)=O)C1 (stereo not given) and write its reported GI50.
A: > 100 µM (inactive)

Q: Read the entry `COc1ccc(-n2c(=O)c3nc[nH]c3n(-c3ccc(OC)cc3)c2=S)cc1` and write its reported GI50.
A: > 100 µM (inactive)

Q: Read the entry `CCCCNC(=O)NNC(=O)c1cc(/C=C/c2cccc([N+](=O)[O-])c2)ncn1` and write its reported GI50.
A: > 100 µM (inactive)

Q: Read the entry NC(=O)C(Nc1ccc(Cl)cc1)c1cc2cc(Br)ccc2nc1Cl (stereo not given) and write its reported GI50.
A: > 50 µM (inactive)

Q: Read the entry `COc1ccc(-n2c(C)nc3ccc(NC(=S)Nc4ccccc4)cc3c2=O)cc1` and write its reported GI50.
A: > 100 µM (inactive)

Q: Read the entry CCOC(=O)c1cc(C2(OC)CCN(Cc3ccccc3)C2=O)c(-c2cc(C)no2)[nH]1 (stereo not given) and write its reported GI50.
A: > 100 µM (inactive)

Q: Read the entry `O=[N+]([O-])c1ccc(/C=N/Nc2nc3ccccc3[nH]2)o1` and write its reported GI50.
A: 15.8 µM (inactive)

Q: Read the entry `Brc1ccc2c(-c3nc(-c4c[nH]c5ccccc45)cs3)c[nH]c2c1` and write its reported GI50.
A: > 45.8 µM (inactive)

Q: Read the entry COS(=O)(=O)OCCC(NC(=O)OCc1ccccc1)C(=O)OCc1ccccc1 (stereo not given) and write its reported GI50.
A: > 100 µM (inactive)

Q: Read the entry Cc1ccc([S+]([O-])CC(CF)OCn2cc(C)c(=O)[nH]c2=O)cc1 (stereo not given) and write its reported GI50.
A: > 100 µM (inactive)

Q: Read the entry COC(=O)C(CC(=O)Nc1ccc(C)cc1)C(=O)C(=O)Nc1ccccc1C(C)C (stereo not given) and write its reported GI50.
A: > 100 µM (inactive)

Q: Read the entry `Cn1cnc([N+](=O)[O-])c1Sc1nccn1-c1ccccc1` and write its reported GI50.
A: > 100 µM (inactive)
